Overview of reported Extinction Coefficient (ε) across a group of compounds:
# testName: Photophysical properties in aqueous buffer (UV-visible, fluorescence, quantum yield, extinction coefficient)
# Type: physicochemical
# conditions: Apo, 50 nM to 250 nM probe
property: Extinction Coefficient (ε)

1) Cc1cc(C)c(C2=C3C=CC(OCCN=[N+]=[N-])=[N+]3[B-](F)(F)n3c2ccc3N(CCN(Cc2ccccn2)Cc2ccccn2)Cc2ccccn2)c(C)c1 : 1.42(35) × 10^4 M^−1cm^−1
2) Cc1cc(C)c(C2=C3C=CC(OCCN)=[N+]3[B-](F)(F)n3c2ccc3N(CCN(Cc2ccccn2)Cc2ccccn2)Cc2ccccn2)c(C)c1 : 1.16(4) × 10^4 M^−1cm^−1
3) COc1ccc2n1[B-](F)(F)[N+]1=C(N(CCN(Cc3ccccn3)Cc3ccccn3)Cc3ccccn3)C=CC1=C2c1c(C)cc(C)cc1C [ZincBY-1, reference compound] : 2.42(33) × 10^4 M^−1cm^−1
4) CC(=O)NCCOc1ccc2n1[B-](F)(F)[N+]1=C(N(CCN(Cc3ccccn3)Cc3ccccn3)Cc3ccccn3)C=CC1=C2c1c(C)cc(C)cc1C : 0.88(4) × 10^4 M^−1cm^−1
